biological target: recombinant rat PIM-3 (Rattus norvegicus, UniProt O70444); test: PIM-3 Assay (as Example A); details: averaged IC50; 30 μM ATP, 3.75 μM PIM2tide, 0.5 nM PIM-3
pIC50: −log10 of the molar value. Counter-ions that a name gives are not always drawn.
METRIC NAME: pIC50

A selection of reference data follows.
* CC1(O)CCN([C@H](c2ccc3nnc(-c4ccc5cccc(C(C)(C)C)c5n4)n3c2)C(F)(F)F)C1 (single isomer, unassigned; diastereomer 1) [Example 195, hydrochloride] | 7.28
* COc1cc(F)cc2ccc(-c3nnc4ccc([C@@H](N5CC[C@](C)(N)C5)C(F)(F)F)cn34)nc12 [Example 248, dihydrochloride] | 8.09
* Cc1c(-c2cnn(C)c2C)ccc2ccc(-c3nnc4ccc([C@@H](N5CC[C@H](N)C5)C(F)(F)F)cn34)nc12 [Example 214, dihydrochloride] | 9.40

A = COc1ccc2ccc(-c3nnc4ccc([C@@H](N5CC[C@H](N)C5)C(F)(F)F)cn34)nc2c1C1CC1 [Example 143, dihydrochloride]
B = CCOc1cc2nc(-c3nnc4ccc([C@H](C)N5CC[C@H](N)C5)cn34)ccc2cc1F [Example 310, trihydrochloride]
C = COc1c(F)cc2ccc(-c3nnc4ccc([C@@H](N5CC[C@H](N)C5)C(F)(F)F)cn34)nc2c1F [Example 178, dihydrochloride]
### Prompt Sort these compounds on pIC50 so the largest reading comes first. Ranked list of labels, please, in the requested order.
### Response A, B, C
